FYI, the data here is from patent US10111432B2.

# Tested on: Zymoseptoria tritici
# measurement-description: Fungicidal activity: leaf blotch of wheat (SEPTTR), disease control on wheat seedlings
# Assay type: in vivo
# condition-set: 24 h, high volume application, 100 ppm, 1 day protectant, read-out: SEPTTR disease control, 1DP, HV activity at 100 ppm
recorded-metric: pest or weed control at 100 ppm

Here are 2 molecules together with their reported answers.
- smiles-data: "COc1cc[n+]([O-])c(C(=O)N[C@@H](C)C(=O)O[C@@H](C)C(O)(c2ccc(Cl)c(Cl)c2)c2ccc(Cl)c(Cl)c2)c1O"
  pest or weed control at 100 ppm: "> 80%"
- smiles-data: "COc1cc[n+]([O-])c(C(=O)N[C@@H](C)C(=O)O[C@@H](C)[C@@H](c2ccc(F)cc2)c2ccc(F)cc2C)c1O"
  pest or weed control at 100 ppm: "> 80%"

Task: Retrieve pest or weed control at 100 ppm on Zymoseptoria tritici; query COc1cc[n+]([O-])c(C(=O)N[C@@H](C)C(=O)O[C@@H](C)[C@H](c2ccc(C)cc2)c2ccc(C)cc2F)c1O
Result: > 80%
